Molecular target: swine's pancreatic elastase (E3) (Sus scrofa, UniProt P00772)
Sequence (P00772 27-266): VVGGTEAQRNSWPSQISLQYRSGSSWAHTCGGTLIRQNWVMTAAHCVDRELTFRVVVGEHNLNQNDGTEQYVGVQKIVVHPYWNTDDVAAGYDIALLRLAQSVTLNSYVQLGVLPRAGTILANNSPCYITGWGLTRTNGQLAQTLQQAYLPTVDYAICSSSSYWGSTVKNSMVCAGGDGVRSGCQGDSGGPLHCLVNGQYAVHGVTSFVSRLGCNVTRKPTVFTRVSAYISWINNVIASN
Test: Inhibition constants (Ki) with pancreatic elastase and chromogenic p-nitroanilide substrates
Type: biochemical
Details: Table 1; pancreatic elastase; substrate Glt-(Ala)4-NAn; read-out: Ki, substrate Glt-(Ala)4-NAn
Starred links: 1 amine or outer side, 2 acyl side, 3 side chain; linkers in the order of their positions; H or OH if unused. Residues, ends and D or L forms follow the SMILES beside them. *: point of attachment. Glutaryl = O=C(CCCC(=O)[*:2])[*:1]; NHPhenethyl = c1ccc(CCN*)cc1; Suc = O=C(CCC(=O)[*:2])[*:1]
Measurement name: Ki (µM)
Just the number please, in µM, no unit attached.

Molecule	Ki, µM
CC(C)CNC(=O)[C@H](C)NC(=O)[C@H](C)NC(=O)[C@H](C)NC(=O)CCC(=O)O	1470
C[C@H](NC(=O)CCC(=O)O)C(=O)N[C@@H](C)C(=O)NCCc1ccccc1 [Suc--(Ala)2 --NH--EtPh] (Suc-Ala-Ala-NHPhenethyl)	666
CCCNC(=O)[C@H](C)NC(=O)[C@H](C)NC(=O)[C@H](C)NC(=O)CCC(=O)O	4.5
CC(C)CNC(=O)[C@H](C)NC(=O)[C@H](C)NC(=O)[C@H](C)NC(=O)CCCC(=O)O	794
CCNC(=O)[C@@H]1CCCN1C(=O)[C@H](C)NC(=O)CCC(=O)O [Suc--Ala--Pro--NH--Et] (Suc-Ala-Pro-NHEt)	80

For the molecule shown here, "CNC(=O)[C@H](C)NC(=O)[C@H](C)NC(=O)[C@H](C)NC(=O)CCC(=O)O" , give the reported Ki. 680

For the molecule shown here, CCNC(=O)[C@@H]1CCCN1C(=O)[C@H](C)NC(=O)[C@H](C)NC(=O)CCCC(=O)O [Glt--Ala--Ala--Pro--NH--Et] (Glutaryl-Ala-Ala-Pro-NHEt) , give the reported Ki. 2.7

For the molecule shown here, "CCCNC(=O)[C@H](C)NC(=O)[C@H](C)NC(=O)[C@H](C)NC(=O)CCCC(=O)O" , give the reported Ki. 2.5

For the molecule shown here, "CCNC(=O)[C@H](C)NC(=O)[C@H](C)NC(=O)[C@H](C)NC(=O)CCC(=O)O" , give the reported Ki. 29

For the molecule shown here, CCNC(=O)[C@H](C)NC(=O)[C@H](C)NC(=O)CCC(=O)O [Suc--(ala)2 --NH--Et] (Suc-Ala-Ala-NHEt) , give the reported Ki. 166
